# test.target: T1, HPV 16 E6(29-38)-peptide-MHC tetramer complex (human papillomavirus 16 (HPV16); human)
# T1 construct: also called E6(29-38)-specific tetramer
# procedure.summary: flow cytometry, peptide-MHC tetramer staining of TCR-transduced primary human T cells;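 also: normal donor T cells activated with anti-CD3/anti-CD28, then lentivirally transduced with TCRs, with mock-transduced cells as control, co-stained for the transduction marker and CD8, tetramers presented by HLA-A02:01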
readout.type: % of CD8+ cells positive for E6(29-38) tetramer staining

* TCR 58 (mouse constant regions) (TCR, V domains shown) V domain 1: RKEVEQDPGPFNVPEGATVAFNCTYSNSASQSFFWYRQDCRKEPKLLMSVYSSGNEDGRFTAQLNRASQYISLLIRDSKLSDSATYLCVVNRDNYGQNFVFGPGTRLSVLP V domain 2: EPEVTQTPSHQVTQMGQEVILRCVPISNHLYFYWYRQILGQKVEFLVSFYNNEISEKSEIFDDQFSVERPDGSNFTLKIRSTKLEDSAMYFCASTPRSSYEQYFGPGTRLTVTE | 0.14%

Entry TCR 61 (mouse constant regions) (TCR, V domains shown) V domain 1: QKEVEQNSGPLSVPEGAIASLNCTYSDRGSQSFFWYRQYSGKSPELIMFIYSNGDKEDGRFTAQLNKASQYVSLLIRDSQPSDSATYLCAVNIENNNARLMFGDGTQLVVKP V domain 2: EPEVTQTPSHQVTQMGQEVILRCVPISNHLYFYWYRQILGQKVEFLVSFYNNEISEKSEIFDDQFSVERPDGSNFTLKIRSTKLEDSAMYFCASTKRFSYEQYFGPGTRLTVTE , % of CD8+ cells positive for E6(29-38) tetramer staining reported as 0.15%

Values compiled from patent US20190321401A1.
